Target: human CRTH2 receptor (Homo sapiens, UniProt Q9Y5Y4, V204A)
Sequence (Q9Y5Y4 whole entry V204A): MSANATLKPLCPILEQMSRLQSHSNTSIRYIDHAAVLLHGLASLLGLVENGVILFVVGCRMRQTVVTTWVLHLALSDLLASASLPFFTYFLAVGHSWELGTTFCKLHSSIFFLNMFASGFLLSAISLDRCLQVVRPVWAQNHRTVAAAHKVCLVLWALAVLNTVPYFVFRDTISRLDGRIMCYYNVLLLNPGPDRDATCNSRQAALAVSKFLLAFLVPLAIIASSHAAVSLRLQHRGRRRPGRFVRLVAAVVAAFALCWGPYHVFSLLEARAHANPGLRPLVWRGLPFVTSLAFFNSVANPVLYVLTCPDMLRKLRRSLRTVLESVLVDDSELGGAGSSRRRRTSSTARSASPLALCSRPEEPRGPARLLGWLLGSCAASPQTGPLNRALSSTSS
Test: Receptor binding assay: [3H]PGD2 competition on whole COS-7 cells transfected with CRTH2
Settings: 0.1 nM [3H]PGD2, whole cells, 3 h at 4° C.
Hi there, I'd appreciate the recorded IC50 for every entry that follows.

| molecule | IC50 |
| --- | --- |
| O=C(O)Cc1sc(C(Cc2ccccc2)c2ccc(Cl)cc2)nc1-c1ccc(F)cc1 (centres unmarked) [Compound A7] | < 500 nM |
| COc1ccc(C(c2ccccn2)c2nc(-c3ccc(F)cc3)c(CC(=O)O)s2)cc1 (centres unmarked) [Compound A30] | < 500 nM |
| O=C(O)Cc1sc(C(c2ccccc2)c2ccc(Cl)cc2)nc1-c1ccc(Cl)cc1 (centres unmarked) [Compound A8] | < 500 nM |

Quick batch: IC50 for everything below.
1. CC(=O)N1CCC(c2ccccc2)(c2nc(-c3ccc(Cl)cc3)c(CC(=O)O)s2)CC1 [Compound A45]
2. CC(=O)Nc1cccc(-c2ccccc2Cc2nc(-c3ccc(F)cc3)c(CC(=O)O)s2)c1 [Compound A39]
3. N#Cc1cccc(-c2ccccc2Cc2nc(-c3ccc(F)cc3)c(CC(=O)O)s2)c1 [Compound A43]
4. COc1ccc(C(c2ccccn2)c2nc(-c3ccc(Cl)cc3)c(CC(=O)O)s2)cc1 (centres unmarked) [Compound A31]
5. O=C(O)Cc1sc(C(c2ccccc2)c2ccccc2)nc1-c1ccc(Oc2ccccc2)cc1 [Compound A21]

["< 500 nM", "500 to 5000 nM", "< 500 nM", "< 500 nM", "< 500 nM"]
